system: HCT-116; assay: cells; conditions: Homo sapiens, HCT-116, 96 h
Description: Antiproliferative activity against ALK-negative human HCT-116 cells assessed as inhibition of cell growth incubated for 96 hrs by MTT assay
Each entry below carries its reported pIC50.
Convention used: pIC50 is expressed as -log10 of the molar concentration.

Cc1cc(Nc2ncc(Cl)c(Nc3ccccc3S(=O)(=O)C(C)C)n2)c(OC(C)C)cc1C1CCN(C(=S)SCC(=O)NC2CCC2)CC1 : 5.15
Cc1cc(Nc2ncc(Cl)c(Nc3ccccc3S(=O)(=O)C(C)C)n2)c(OC(C)C)cc1C1CCNCC1 : 5.97
Cc1cc(Nc2ncc(Cl)c(Nc3ccccc3S(=O)(=O)C(C)C)n2)c(OC(C)C)cc1C1CCN(C(=O)SCC(=S)N2CCN(C3CCCC3)CC2)CC1 : 5.24

[ask] Entry Cc1cc(Nc2ncc(Cl)c(Nc3ccccc3S(=O)(=O)C(C)C)n2)c(OC(C)C)cc1C1CCN(C(=S)SCC(=O)NC2CCCCC2)CC1 : reported pIC50 = ?
[reply] 5.11

[ask] Entry Cc1cc(Nc2ncc(Cl)c(Nc3ccccc3S(=O)(=O)C(C)C)n2)c(OC(C)C)cc1C1CCN(C(=S)SCCN2CCCCC2)CC1 : reported pIC50 = ?
[reply] 5.61

[ask] Entry Cc1cc(Nc2ncc(Cl)c(Nc3ccccc3S(=O)(=O)C(C)C)n2)c(OC(C)C)cc1C1CCN(C(=S)SCC(=O)NC2CCCC2)CC1 : reported pIC50 = ?
[reply] 5.45

[ask] Entry CCN(CC)CCSC(=S)N1CCC(c2cc(OC(C)C)c(Nc3ncc(Cl)c(Nc4ccccc4S(=O)(=O)C(C)C)n3)cc2C)CC1 : reported pIC50 = ?
[reply] 6.01

###

system: HCT-116; assay: cells; conditions: Homo sapiens, HCT-116, 96 h
observation.type: IC50 (µM)
Answer format: numeric, µM implied, no suffix.

Past entries and their recorded results:
Cc1cc(Nc2ncc(Cl)c(Nc3ccccc3S(=O)(=O)C(C)C)n2)c(OC(C)C)cc1C1CCN(C(=O)SCC(=S)N2CCS(=O)(=O)CC2)CC1 : 5.53
Cc1cc(Nc2ncc(Cl)c(Nc3ccccc3S(=O)(=O)C(C)C)n2)c(OC(C)C)cc1C1CCN(C(=S)SCC(N)=O)CC1 : 8.15
CCN(CC)C(=S)CSC(=O)N1CCC(c2cc(OC(C)C)c(Nc3ncc(Cl)c(Nc4ccccc4S(=O)(=O)C(C)C)n3)cc2C)CC1 : 2.51
Cc1cc(Nc2ncc(Cl)c(Nc3ccccc3S(=O)(=O)C(C)C)n2)c(OC(C)C)cc1C1CCN(C(=S)SCCN(C)C)CC1 : 1.07
Cc1cc(Nc2ncc(Cl)c(Nc3ccccc3S(=O)(=O)C(C)C)n2)c(OC(C)C)cc1C1CCN(C(=O)SCC(=S)N2CCC[C@H]2CO)CC1 : 4.89
Cc1cc(Nc2ncc(Cl)c(Nc3ccccc3S(=O)(=O)C(C)C)n2)c(OC(C)C)cc1C1CCN(C(=O)SCC(=S)N2CCOCC2)CC1 : 4.95
CCN(CC)C(=O)CSC(=S)N1CCC(c2cc(OC(C)C)c(Nc3ncc(Cl)c(Nc4ccccc4S(=O)(=O)C(C)C)n3)cc2C)CC1 : 4.74
Cc1cc(Nc2ncc(Cl)c(Nc3ccccc3S(=O)(=O)C(C)C)n2)c(OC(C)C)cc1C1CCN(C(=O)SCC(=S)N2CCN(C)CC2)CC1 : 2.7
Cc1cc(Nc2ncc(Cl)c(Nc3ccccc3S(=O)(=O)C(C)C)n2)c(OC(C)C)cc1C1CCN(C(=S)SCCN2CCCC2)CC1 : 4.67
Cc1cc(Nc2ncc(Cl)c(Nc3ccccc3S(=O)(=O)C(C)C)n2)c(OC(C)C)cc1C1CCN(C(=S)SCC(=O)N(C)C)CC1 : 5.93

[ask] Entry Cc1cc(Nc2ncc(Cl)c(Nc3ccccc3S(=O)(=O)C(C)C)n2)c(OC(C)C)cc1C1CCN(C(=O)SCC(=S)N2CCCCC2)CC1 : reported IC50 = ?
[reply] 3.36

[ask] Entry Cc1cc(Nc2ncc(Cl)c(Nc3ccccc3S(=O)(=O)C(C)C)n2)c(OC(C)C)cc1C1CCN(C(=O)SCC(=S)N2CCSCC2)CC1 : reported IC50 = ?
[reply] 5.28

[ask] Entry Cc1cc(Nc2ncc(Cl)c(Nc3ccccc3S(=O)(=O)C(C)C)n2)c(OC(C)C)cc1C1CCN(C(=O)SCC(=S)N(C)C)CC1 : reported IC50 = ?
[reply] 2.73

[ask] Entry Cc1cc(Nc2ncc(Cl)c(Nc3ccccc3S(=O)(=O)C(C)C)n2)c(OC(C)C)cc1C1CCN(C(=S)SCC(=O)N2CCCCC2)CC1 : reported IC50 = ?
[reply] 3.33
